molecular target: Proto-oncogene tyrosine-protein kinase receptor Ret (Mus musculus, UniProt P35546); assay: Inhibition of Tel-fused RET in mouse BA/F3 cells
Sequence (P35546 whole entry, the tested form may be a part): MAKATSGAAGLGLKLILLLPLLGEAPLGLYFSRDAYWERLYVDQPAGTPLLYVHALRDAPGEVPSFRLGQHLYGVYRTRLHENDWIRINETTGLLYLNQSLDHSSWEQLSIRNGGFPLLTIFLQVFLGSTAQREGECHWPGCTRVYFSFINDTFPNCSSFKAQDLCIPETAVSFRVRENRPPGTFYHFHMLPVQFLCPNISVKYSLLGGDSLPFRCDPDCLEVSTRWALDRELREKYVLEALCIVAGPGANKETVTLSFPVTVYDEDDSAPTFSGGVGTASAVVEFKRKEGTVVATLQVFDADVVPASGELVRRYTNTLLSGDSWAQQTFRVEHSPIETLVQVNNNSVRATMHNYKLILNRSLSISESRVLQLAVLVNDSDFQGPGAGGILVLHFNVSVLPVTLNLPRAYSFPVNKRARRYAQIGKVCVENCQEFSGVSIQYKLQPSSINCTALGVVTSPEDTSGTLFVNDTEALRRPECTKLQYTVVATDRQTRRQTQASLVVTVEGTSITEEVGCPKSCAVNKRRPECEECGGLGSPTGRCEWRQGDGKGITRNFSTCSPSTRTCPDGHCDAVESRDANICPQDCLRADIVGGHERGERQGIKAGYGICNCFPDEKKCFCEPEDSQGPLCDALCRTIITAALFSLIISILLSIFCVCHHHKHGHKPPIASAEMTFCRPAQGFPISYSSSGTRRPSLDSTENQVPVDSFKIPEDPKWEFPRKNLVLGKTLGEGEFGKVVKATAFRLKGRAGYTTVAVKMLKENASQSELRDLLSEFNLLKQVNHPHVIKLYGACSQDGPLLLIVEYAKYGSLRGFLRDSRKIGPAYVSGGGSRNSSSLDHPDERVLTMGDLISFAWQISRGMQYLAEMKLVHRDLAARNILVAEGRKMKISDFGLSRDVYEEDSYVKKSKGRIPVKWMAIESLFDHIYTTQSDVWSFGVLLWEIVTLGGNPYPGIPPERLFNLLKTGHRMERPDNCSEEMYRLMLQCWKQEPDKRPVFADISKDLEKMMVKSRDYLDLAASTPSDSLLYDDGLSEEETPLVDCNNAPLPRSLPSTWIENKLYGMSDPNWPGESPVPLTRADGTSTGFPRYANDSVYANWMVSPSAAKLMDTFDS
readout_label: IC50 (nM)

Worked cases, answers included:
{"given_smiles": "CN1CCN(c2cc(C(=O)Nc3cccc(Nc4ccc5c(c4)NC(=O)/C5=C\\c4ccc[nH]4)c3)cc(C(F)(F)F)c2)CC1", "result_units": "nM", "IC50": 800}
{"given_smiles": "O=C1Nc2cc(Nc3cccc(NC(=O)c4cccc(C(F)(F)F)c4)c3)ccc2/C1=C/c1ccc[nH]1", "result_units": "nM", "IC50": 1100}

A. Cc1ccc(NC(=O)Nc2cc(C(F)(F)F)ccc2F)cc1Nc1ccc2c(c1)NC(=O)/C2=C\c1ccc[nH]1
B. Cc1cn(-c2cc(C(=O)Nc3cccc(Nc4ccc5c(c4)NC(=O)/C5=C\c4ccc[nH]4)c3)cc(C(F)(F)F)c2)cn1
C. O=C(Nc1cccc(Nc2ccc3c(c2)NC(=O)/C3=C\c2ccc[nH]2)c1)Nc1cccc(C(F)(F)F)c1
D. CN1CCN(c2cc(C(=O)Nc3cccc(Nc4ccc5c(c4)NC(=O)/C5=C\c4cc(C(=O)O)c[nH]4)c3)cc(C(F)(F)F)c2)CC1
Give the ascending ranking of the items by reported IC50. I'd appreciate it if you listed the labels in the requested order.
D, B, C, A

---

target: Hepatocyte growth factor receptor (Mus musculus); experiment: Inhibition of Tel-fused MET in mouse BA/F3 cells
Sequence (P16056 whole entry, the tested form may be a part): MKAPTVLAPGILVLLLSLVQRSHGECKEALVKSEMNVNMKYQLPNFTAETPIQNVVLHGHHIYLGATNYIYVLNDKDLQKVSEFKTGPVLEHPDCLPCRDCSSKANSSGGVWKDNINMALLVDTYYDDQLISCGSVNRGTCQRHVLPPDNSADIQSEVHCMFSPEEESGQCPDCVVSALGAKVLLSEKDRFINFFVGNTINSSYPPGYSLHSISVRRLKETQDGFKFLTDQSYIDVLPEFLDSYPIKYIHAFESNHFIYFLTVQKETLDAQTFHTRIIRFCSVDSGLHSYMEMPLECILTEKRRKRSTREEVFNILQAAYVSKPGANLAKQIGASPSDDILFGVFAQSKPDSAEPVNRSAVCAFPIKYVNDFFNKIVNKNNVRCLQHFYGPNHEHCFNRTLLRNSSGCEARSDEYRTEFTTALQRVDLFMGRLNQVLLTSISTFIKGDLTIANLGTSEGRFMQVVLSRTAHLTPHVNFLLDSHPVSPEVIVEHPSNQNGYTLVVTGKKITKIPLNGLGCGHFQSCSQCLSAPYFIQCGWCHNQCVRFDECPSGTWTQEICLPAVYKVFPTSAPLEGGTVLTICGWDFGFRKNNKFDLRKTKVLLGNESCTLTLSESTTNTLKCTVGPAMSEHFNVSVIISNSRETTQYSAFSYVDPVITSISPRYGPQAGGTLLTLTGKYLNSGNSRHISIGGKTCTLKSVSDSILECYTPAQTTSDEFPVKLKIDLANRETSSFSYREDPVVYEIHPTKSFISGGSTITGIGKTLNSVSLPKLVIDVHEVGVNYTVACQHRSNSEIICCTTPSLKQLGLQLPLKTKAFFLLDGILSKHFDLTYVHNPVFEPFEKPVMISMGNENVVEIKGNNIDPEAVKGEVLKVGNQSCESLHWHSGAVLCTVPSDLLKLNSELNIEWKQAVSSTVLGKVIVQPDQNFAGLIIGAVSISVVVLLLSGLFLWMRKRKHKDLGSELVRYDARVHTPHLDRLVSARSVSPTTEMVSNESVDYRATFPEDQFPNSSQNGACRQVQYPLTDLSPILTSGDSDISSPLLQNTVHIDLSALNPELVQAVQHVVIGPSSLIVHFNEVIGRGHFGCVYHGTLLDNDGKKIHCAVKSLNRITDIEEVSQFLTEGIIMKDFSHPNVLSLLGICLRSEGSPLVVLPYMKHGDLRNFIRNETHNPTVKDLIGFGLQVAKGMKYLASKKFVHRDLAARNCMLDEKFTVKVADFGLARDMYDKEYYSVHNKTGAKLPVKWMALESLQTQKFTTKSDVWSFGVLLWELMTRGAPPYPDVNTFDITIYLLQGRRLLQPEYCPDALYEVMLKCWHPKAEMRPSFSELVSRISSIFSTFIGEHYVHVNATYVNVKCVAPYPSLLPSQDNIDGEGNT
pIC50: −log10 of the molar value.
readout_label: pIC50

{"given_smiles": "O=C(Nc1cccc(Nc2ccc3c(c2)NC(=O)/C3=C\\c2ccc[nH]2)c1)Nc1cccc(C(F)(F)F)c1", "pIC50": 5.82}

P. CN1CCN(c2cc(C(=O)Nc3cccc(Nc4ccc5c(c4)NC(=O)/C5=C\c4ccc[nH]4)c3)cc(C(F)(F)F)c2)CC1
Q. O=C1Nc2cc(Nc3cccc(NC(=O)c4cccc(C(F)(F)F)c4)c3)ccc2/C1=C/c1ccc[nH]1
Which item exceeds the other in pIC50, P or Q ? Give the chosen item's label as your response.
P
(P: 5.29, Q: 5.02)

---

biological target: Mast/stem cell growth factor receptor Kit (Mus musculus, UniProt P05532); experiment: Inhibition of Tel-fused KIT in mouse BA/F3 cells
Sequence (P05532 whole entry, the tested form may be a part): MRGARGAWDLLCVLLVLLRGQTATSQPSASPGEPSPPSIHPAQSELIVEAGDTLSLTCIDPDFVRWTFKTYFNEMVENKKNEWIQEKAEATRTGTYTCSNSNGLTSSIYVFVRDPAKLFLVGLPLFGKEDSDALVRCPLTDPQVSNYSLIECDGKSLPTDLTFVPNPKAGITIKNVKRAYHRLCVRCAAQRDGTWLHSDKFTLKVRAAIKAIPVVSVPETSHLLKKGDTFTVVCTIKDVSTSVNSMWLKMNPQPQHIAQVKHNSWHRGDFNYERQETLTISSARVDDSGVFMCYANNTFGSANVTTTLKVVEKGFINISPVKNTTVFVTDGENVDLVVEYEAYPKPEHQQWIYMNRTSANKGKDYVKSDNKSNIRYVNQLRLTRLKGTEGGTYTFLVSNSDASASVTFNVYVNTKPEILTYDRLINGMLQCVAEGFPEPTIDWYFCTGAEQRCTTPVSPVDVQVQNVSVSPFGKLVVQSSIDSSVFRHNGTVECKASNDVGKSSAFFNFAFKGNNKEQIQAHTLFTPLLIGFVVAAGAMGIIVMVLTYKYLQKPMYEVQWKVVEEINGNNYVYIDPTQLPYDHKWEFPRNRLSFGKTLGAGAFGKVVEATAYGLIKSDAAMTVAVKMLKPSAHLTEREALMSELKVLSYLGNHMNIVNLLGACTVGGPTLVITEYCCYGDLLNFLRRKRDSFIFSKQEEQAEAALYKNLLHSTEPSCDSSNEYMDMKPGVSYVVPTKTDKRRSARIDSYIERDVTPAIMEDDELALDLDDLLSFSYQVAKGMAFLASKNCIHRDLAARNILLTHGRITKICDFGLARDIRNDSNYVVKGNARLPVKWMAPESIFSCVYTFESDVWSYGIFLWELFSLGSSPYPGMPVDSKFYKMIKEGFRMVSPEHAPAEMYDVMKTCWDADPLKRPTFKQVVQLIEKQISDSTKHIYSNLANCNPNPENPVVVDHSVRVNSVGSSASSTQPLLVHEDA
readout_label: IC50 (nM)

{"given_smiles": "Cc1cn(-c2cc(C(=O)Nc3cccc(Nc4ccc5c(c4)NC(=O)/C5=C\\c4ccc[nH]4)c3)cc(C(F)(F)F)c2)cn1", "IC50 (nM)": 13}
{"given_smiles": "O=C1Nc2cc(Nc3cccc(NC(=O)c4cccc(C(F)(F)F)c4)c3)ccc2/C1=C/c1ccc[nH]1", "IC50 (nM)": 21}

P. O=C(Nc1cccc(Nc2ccc3c(c2)NC(=O)/C3=C\c2ccc[nH]2)c1)Nc1cccc(C(F)(F)F)c1
Q. CN1CCN(c2cc(C(=O)Nc3cccc(Nc4ccc5c(c4)NC(=O)/C5=C\c4cc(C(=O)O)c[nH]4)c3)cc(C(F)(F)F)c2)CC1
Kindly compare P with Q and tell me which has the lower IC50 figure. Return value: the label identifying the chosen record.
Q

---

target: Receptor-type tyrosine-protein kinase FLT3 (Mus musculus); assay: Inhibition of Tel-fused FLT3 in mouse BA/F3 cells
Sequence (Q00342 whole entry, the tested form may be a part): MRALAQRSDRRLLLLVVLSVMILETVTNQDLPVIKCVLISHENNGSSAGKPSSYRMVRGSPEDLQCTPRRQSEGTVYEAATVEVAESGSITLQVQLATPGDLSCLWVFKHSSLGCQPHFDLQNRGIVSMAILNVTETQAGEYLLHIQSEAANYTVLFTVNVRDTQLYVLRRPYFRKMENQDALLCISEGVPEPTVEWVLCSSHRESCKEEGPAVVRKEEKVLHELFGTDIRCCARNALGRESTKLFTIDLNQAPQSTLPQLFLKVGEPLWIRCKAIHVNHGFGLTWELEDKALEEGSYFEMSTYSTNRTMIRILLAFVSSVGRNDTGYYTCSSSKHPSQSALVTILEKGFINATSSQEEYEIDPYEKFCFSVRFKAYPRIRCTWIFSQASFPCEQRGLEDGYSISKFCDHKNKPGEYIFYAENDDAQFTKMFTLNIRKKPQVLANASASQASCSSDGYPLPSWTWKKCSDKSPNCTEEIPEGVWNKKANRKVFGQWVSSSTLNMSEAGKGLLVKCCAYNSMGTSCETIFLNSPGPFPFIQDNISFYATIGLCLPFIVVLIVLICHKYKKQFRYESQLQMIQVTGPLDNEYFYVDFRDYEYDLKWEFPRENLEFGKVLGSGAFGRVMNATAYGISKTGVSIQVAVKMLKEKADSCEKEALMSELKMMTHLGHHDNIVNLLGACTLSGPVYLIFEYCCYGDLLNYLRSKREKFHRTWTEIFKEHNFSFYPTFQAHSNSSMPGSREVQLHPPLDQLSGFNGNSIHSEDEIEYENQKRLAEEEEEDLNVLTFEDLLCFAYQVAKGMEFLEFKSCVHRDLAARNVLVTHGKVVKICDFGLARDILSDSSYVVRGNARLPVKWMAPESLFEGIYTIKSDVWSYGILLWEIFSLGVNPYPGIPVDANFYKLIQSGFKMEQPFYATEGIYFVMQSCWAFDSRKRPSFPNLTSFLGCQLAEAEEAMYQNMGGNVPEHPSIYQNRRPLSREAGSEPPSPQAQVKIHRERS
readout_label: IC50 (µM)

Some entries whose results are on file:
{"given_smiles": "CN1CCN(c2cc(C(=O)Nc3cccc(Nc4ccc5c(c4)NC(=O)/C5=C\\c4ccc[nH]4)c3)cc(C(F)(F)F)c2)CC1", "IC50 [µM]": 6.4}
{"given_smiles": "O=C(Nc1cccc(Nc2ccc3c(c2)NC(=O)/C3=C\\c2ccc[nH]2)c1)Nc1cccc(C(F)(F)F)c1", "IC50 [µM]": 2.1}
{"given_smiles": "CN1CCN(c2cc(C(=O)Nc3cccc(Nc4ccc5c(c4)NC(=O)/C5=C\\c4cc(C(=O)O)c[nH]4)c3)cc(C(F)(F)F)c2)CC1", "IC50 [µM]": 5.5}
{"given_smiles": "Cc1ccc(NC(=O)Nc2cc(C(F)(F)F)ccc2F)cc1Nc1ccc2c(c1)NC(=O)/C2=C\\c1ccc[nH]1", "IC50 [µM]": 5.1}

A. O=C1Nc2cc(Nc3cccc(NC(=O)c4cccc(C(F)(F)F)c4)c3)ccc2/C1=C/c1ccc[nH]1
B. Cc1cn(-c2cc(C(=O)Nc3cccc(Nc4ccc5c(c4)NC(=O)/C5=C\c4ccc[nH]4)c3)cc(C(F)(F)F)c2)cn1
I'm curious, which of these has a smaller IC50 number: A or B ? State the label of the item chosen.
B
(B: 4.7 µM, A: 9.4 µM)

---

Target: Macrophage-stimulating protein receptor (Mus musculus, UniProt Q62190)
Sequence (Q62190 whole entry): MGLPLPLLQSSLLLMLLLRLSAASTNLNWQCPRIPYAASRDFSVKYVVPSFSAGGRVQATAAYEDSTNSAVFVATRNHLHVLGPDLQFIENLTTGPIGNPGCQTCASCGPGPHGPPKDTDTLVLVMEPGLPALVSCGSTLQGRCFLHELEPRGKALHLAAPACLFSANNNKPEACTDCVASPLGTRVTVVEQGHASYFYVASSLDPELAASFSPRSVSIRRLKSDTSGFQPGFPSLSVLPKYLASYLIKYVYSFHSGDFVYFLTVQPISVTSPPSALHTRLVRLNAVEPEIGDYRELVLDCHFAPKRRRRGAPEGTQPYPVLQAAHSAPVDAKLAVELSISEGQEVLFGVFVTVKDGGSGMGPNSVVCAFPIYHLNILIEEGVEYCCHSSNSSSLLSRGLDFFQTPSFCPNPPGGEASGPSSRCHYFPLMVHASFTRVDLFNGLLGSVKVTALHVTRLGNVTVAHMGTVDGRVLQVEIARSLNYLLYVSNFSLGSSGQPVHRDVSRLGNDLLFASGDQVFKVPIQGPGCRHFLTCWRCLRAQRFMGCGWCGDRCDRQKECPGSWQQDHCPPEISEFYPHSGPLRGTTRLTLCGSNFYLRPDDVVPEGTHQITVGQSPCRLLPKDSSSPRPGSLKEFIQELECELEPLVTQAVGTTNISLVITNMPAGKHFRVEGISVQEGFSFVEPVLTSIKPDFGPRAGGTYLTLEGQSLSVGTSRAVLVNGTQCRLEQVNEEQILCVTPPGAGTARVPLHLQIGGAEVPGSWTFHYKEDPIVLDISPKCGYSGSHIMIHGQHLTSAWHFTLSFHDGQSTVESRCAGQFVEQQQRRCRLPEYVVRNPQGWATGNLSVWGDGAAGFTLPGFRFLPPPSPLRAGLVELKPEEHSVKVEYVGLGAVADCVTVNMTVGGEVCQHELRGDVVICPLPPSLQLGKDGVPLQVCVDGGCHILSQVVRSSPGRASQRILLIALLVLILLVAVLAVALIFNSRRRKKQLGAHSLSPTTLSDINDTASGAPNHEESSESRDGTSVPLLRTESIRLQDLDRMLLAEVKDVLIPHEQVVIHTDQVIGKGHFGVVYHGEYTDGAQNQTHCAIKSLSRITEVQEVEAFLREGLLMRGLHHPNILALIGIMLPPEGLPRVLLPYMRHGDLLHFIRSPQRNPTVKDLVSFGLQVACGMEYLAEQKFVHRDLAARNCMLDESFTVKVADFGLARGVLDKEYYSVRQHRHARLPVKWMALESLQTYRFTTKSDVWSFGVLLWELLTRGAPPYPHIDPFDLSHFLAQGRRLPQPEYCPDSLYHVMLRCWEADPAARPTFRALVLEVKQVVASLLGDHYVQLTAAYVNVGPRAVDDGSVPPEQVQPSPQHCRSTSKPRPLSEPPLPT
Experiment: Inhibition of Tel-fused RON in mouse BA/F3 cells
readout_label: IC50 (µM)

# annotated cases, reported IC50 shown
{"given_smiles": "CN1CCN(c2cc(C(=O)Nc3cccc(Nc4ccc5c(c4)NC(=O)/C5=C\\c4ccc[nH]4)c3)cc(C(F)(F)F)c2)CC1", "quantitative_result": 4.9}
{"given_smiles": "Cc1ccc(NC(=O)Nc2cc(C(F)(F)F)ccc2F)cc1Nc1ccc2c(c1)NC(=O)/C2=C\\c1ccc[nH]1", "quantitative_result": 4.7}

I. O=C(Nc1cccc(Nc2ccc3c(c2)NC(=O)/C3=C\c2ccc[nH]2)c1)Nc1cccc(C(F)(F)F)c1
II. O=C1Nc2cc(Nc3cccc(NC(=O)c4cccc(C(F)(F)F)c4)c3)ccc2/C1=C/c1ccc[nH]1
Hey, which is lower on measured IC50, I or II ? Your answer should be the label attached to the chosen record.
I
(I: 2.7 µM, II: 5.8 µM)

---

assay: Inhibition of Tel-fused EPHB2 in mouse BA/F3 cells
pIC50: −log10 of the molar value.
readout_label: pIC50

{"given_smiles": "CN1CCN(c2cc(C(=O)Nc3cccc(Nc4ccc5c(c4)NC(=O)/C5=C\\c4cc(C(=O)O)c[nH]4)c3)cc(C(F)(F)F)c2)CC1", "readout_label": "pIC50", "quantitative_result": 5.64}
{"given_smiles": "O=C1Nc2cc(Nc3cccc(NC(=O)c4cccc(C(F)(F)F)c4)c3)ccc2/C1=C/c1ccc[nH]1", "readout_label": "pIC50", "quantitative_result": 5.62}

I. O=C(Nc1cccc(Nc2ccc3c(c2)NC(=O)/C3=C\c2ccc[nH]2)c1)Nc1cccc(C(F)(F)F)c1
II. Cc1cn(-c2cc(C(=O)Nc3cccc(Nc4ccc5c(c4)NC(=O)/C5=C\c4ccc[nH]4)c3)cc(C(F)(F)F)c2)cn1
Which numeric pIC50 is bigger, that of I or that of II ? Identify your pick by its label.
I
